compounds and their reported pIC50
- Measured target: CDK2-CYCLINA (Homo sapiens)
- Construct: purchased Millipore
- Assay name: CDK inhibition assay (microfluidic LabChip, IC50 format)
- Type: biochemical
- Reported conditions: Table 4a; read-out: CDK2 CyclinA IC50
pIC50: −log10 of the molar value.
Measured endpoint: pIC50

CC(C)N1CC2(CN(c3ccc(Nc4ncc5c(n4)N(C4CCCC4)C(=O)[C@]4(CCNC4=O)C5)nc3)C2)C1 [Example D171]: 5.55
O=C1NCC[C@@]12Cc1cnc(Nc3ccc(N4CCNCC4)cc3F)nc1N(C1CCCC1)C2=O [Example D146]: 6.56
CN1CCN(c2ccc(Nc3ncc4c(n3)N(C3CCCC3)C(=O)[C@]3(CCNC3=O)C4)cn2)CC1 [Example D150]: 7.28
Cn1cc(-c2ccc(Nc3ncc4c(n3)N(C3CCCC3)C(=O)[C@]3(CCNC3=O)C4)cc2)cn1 [Example D169]: 7.47
CN(C)[C@@H]1CCN(c2ccc(Nc3ncc4c(n3)N(C3CCCC3)C(=O)[C@]3(CCNC3=O)C4)cc2F)C1 [Example D176]: 7.48
